target: LNX1_1, Q8TBB1; experiment: holdup assay; set-up: key: below the threshold = too weak to quantify, mostly under pKd 3.1 to 4; conditions: plain residues with an end cap or a label only (N-terminal biotin on a linker: ado-ado)
Sequence (Q8TBB1 261-371): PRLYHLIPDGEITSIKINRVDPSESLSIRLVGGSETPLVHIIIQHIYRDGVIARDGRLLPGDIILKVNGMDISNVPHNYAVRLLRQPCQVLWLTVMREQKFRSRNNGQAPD
reportedEndpoint: pKd

>>> df
                                     binder  reportedendpoint               result
0  VYPNAKVELV [PDLIM4_iso2, P50479;P50479-1]               pKd  below the threshold
1                CLREWCDAFL [BANF1, O75531]               pKd  below the threshold
2                 SARSRLSSNL [HCN2, Q9UL51]               pKd  below the threshold
